Numbers sourced from patent US8435986B2.

System Under Test: Met kinase (Homo sapiens, UniProt P08581)
Sequence (P08581 25-1390): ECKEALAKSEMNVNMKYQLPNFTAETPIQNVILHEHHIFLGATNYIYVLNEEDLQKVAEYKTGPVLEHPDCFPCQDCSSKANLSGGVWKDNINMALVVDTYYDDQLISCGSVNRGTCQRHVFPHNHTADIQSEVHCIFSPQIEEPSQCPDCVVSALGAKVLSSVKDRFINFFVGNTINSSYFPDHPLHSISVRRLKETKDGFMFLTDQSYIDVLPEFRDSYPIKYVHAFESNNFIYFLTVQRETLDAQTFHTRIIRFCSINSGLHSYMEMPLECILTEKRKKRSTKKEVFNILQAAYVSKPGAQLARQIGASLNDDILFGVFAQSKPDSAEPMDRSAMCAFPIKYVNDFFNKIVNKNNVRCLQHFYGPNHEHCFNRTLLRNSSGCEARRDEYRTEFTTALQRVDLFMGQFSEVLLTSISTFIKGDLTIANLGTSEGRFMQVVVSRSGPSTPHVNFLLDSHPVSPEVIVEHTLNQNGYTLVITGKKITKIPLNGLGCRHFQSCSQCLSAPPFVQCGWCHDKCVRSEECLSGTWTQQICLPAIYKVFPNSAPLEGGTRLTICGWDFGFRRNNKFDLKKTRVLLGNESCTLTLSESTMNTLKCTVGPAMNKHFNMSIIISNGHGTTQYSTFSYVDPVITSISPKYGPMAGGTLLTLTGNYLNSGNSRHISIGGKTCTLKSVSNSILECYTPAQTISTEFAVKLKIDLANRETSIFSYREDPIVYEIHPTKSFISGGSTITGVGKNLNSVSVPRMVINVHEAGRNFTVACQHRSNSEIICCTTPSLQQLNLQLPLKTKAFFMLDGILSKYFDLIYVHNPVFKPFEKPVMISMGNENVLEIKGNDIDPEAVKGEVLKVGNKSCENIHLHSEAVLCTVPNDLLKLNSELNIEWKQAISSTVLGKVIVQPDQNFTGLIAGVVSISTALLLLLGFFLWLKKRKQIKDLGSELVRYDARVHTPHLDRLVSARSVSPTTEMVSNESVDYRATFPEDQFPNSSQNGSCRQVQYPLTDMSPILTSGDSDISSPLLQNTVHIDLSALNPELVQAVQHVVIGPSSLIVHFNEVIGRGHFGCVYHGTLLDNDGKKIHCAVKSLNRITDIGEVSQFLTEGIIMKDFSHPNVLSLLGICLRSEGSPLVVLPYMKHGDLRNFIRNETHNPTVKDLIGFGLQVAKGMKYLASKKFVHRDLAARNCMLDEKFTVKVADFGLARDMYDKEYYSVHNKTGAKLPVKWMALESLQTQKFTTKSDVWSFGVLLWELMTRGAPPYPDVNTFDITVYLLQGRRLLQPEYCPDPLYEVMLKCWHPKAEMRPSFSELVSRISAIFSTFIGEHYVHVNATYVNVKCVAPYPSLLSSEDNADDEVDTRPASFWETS
Method Description: Met kinase inhibition, cellular assay
Assay type: cell-based
Test Settings: read-out: Cellular assay IC50 (cell)
Structures can show the parent of a compound that is named as a salt.
Each entry below carries its reported IC50.

Example results:
INSERT INTO measurements (compound, recorded_metric, value_measured) VALUES
  ('CN1CCN(CCOc2cnc(-c3cccc(Cn4nnc5ncc(-c6cnn(C)c6)nc54)c3)nc2)CC1=O', 'IC50', '0.001 to 0.1 µM'),
  ('CN(C)CCOc1cnc(-c2cccc(Cn3nnc4ncc(-c5cnn(C)c5)nc43)c2)nc1 [Compound B14, hydrochloride]', 'IC50', '0.001 to 0.1 µM'),
  ('Brc1cnc(-c2cccc(Cn3nnc4ncc(Br)nc43)c2)nc1', 'IC50', '0.1 to 10 µM');

Continue with the next compound.
Record Fc1ccc2nnn(Cc3cccc(-c4ncc(OCCN5CCOCC5)cn4)c3)c2c1F / Met kinase (Homo sapiens, UniProt P08581), IC50 recorded as 0.001 to 0.1 µM
